settings: in acetone, 283.15 K
experimental.endpoint: solubility (mole fraction)
Numbers only.

**Query** Name the recorded solubility (mole fraction) of the molecule listed here: CC[C@H]1OC(=O)[C@H](C)[C@@H](O[C@H]2C[C@@](C)(OC)[C@@H](O)[C@H](C)O2)[C@H](C)[C@@H](O[C@@H]2O[C@H](C)C[C@H](N(C)C)[C@H]2O)[C@](C)(O)C[C@@H](C)CN(C)[C@H](C)[C@@H](O)[C@]1(C)O.O
**Result** 0.0329

----------
details: in ethanol, 293.15 K
experimental.endpoint: solubility (mole fraction)
Give bare numbers.

**Query** Name the recorded solubility (mole fraction) of the molecule listed here: CC[C@H]1OC(=O)[C@H](C)[C@@H](O[C@H]2C[C@@](C)(OC)[C@@H](O)[C@H](C)O2)[C@H](C)[C@@H](O[C@@H]2O[C@H](C)C[C@H](N(C)C)[C@H]2O)[C@](C)(O)C[C@@H](C)CN(C)[C@H](C)[C@@H](O)[C@]1(C)O.O
**Result** 0.0371
